Origin of measurements: ChEMBL document CHEMBL1201862

Listing of recorded GI50 by entry.
System: HT-29
assay comment: NCI tumour cell line growth inhibition, 48 h
Activity calls are given as the source filed them. No stated cut-off is given here; in the data, active = GI50 up to about 1.1 µM and inactive = higher.

Solved cases (6 shown):
compound=COc1ccccc1NC(=O)C1=C(C)NC(C)=C(C(=O)Nc2ccccc2OC)C1/C=C/c1ccccc1 target_under_test=HT-29 recorded_value="> 100 µM (inactive)"
compound="C=C(Br)C(Cl)(CBr)CCC(Br)C(C)(C)Cl (centres undefined)" target_under_test=HT-29 recorded_value="> 10 µM (inactive)"
compound="COc1cccc2c1C(=O)c1c(O)c3c(c(O)c1C2=O)C[C@@](O)(C(C)=O)C[C@@H]3OC1CC(O)C(O)C(C)O1 (some centres undefined)" target_under_test=HT-29 recorded_value="1.41 µM (inactive)"
compound=O=C(N/C(=C\c1ccc([N+](=O)[O-])cc1)c1nc2c(O)nc(S)nc2[nH]1)c1ccccc1 target_under_test=HT-29 recorded_value="> 100 µM (inactive)"
compound=COc1c(C)c(OCC=C(C)C)cc(CO)c1CO target_under_test=HT-29 recorded_value="54.5 µM (inactive)"
compound="NC(=O)c1ncn(C2OC(CO)C(O)C2O)c1O (centres undefined)" target_under_test=HT-29 recorded_value="4.69 µM (inactive)"

QUERY: Would you mind telling me what GI50 value was observed for `CC(=O)Nc1ccc(S(=O)(=O)/N=c2/sc(S(N)(=O)=O)nn2C)cc1` ?
RESULT: > 100 µM (inactive)

QUERY: Follow-up entry: O=C1CSC(c2ccccc2[N+](=O)[O-])N1c1ccc(-n2c(-c3ccccc3)nc3ccccc3c2=O)cc1 (centres undefined)
RESULT: 54.3 µM (inactive)

QUERY: Follow-up entry: CNC(=O)C(C)C1C(=O)/C(=C(O)/C=C\C(C)=C\C(C)C2OC3(C)OC(C=CC34CO4)C2C)C(=O)N1C1CCC(O)C(C)O1 (centres undefined)
RESULT: > 100 µM (inactive)

###

System: SNB-78
assay comment: NCI tumour cell line growth inhibition, 48 h
Activity calls are given as the source filed them. No stated cut-off is given here; in the data, active = GI50 up to about 1.1 µM and inactive = higher.
quantity name: GI50

Solved cases (6 shown):
compound="c1ccc(C2=NN(c3ccccc3)C3(S2)SC(c2ccccc2)(c2ccccc2)c2ccccc23)cc1 (stereo not drawn)" quantity_name=GI50 recorded_value="> 100 µM (inactive)"
compound=O=C1[C@@H]2C(c3c(Cl)cccc3Cl)=NO[C@@H]2C(=O)N1c1ccc(Cc2ccc(N3C(=O)[C@H]4C(c5c(Cl)cccc5Cl)=NO[C@H]4C3=O)cc2)cc1 quantity_name=GI50 recorded_value="> 100 µM (inactive)"
compound=O=c1c2ccccc2c(=O)n2n1-c1cccc(c1)CSSCc1cccc-2c1 quantity_name=GI50 recorded_value="62.1 µM (inactive)"
compound="Cn1c(=O)c(C2c3ccccc3Oc3c2c(=O)n(C)c2ccccc32)c(O)c2ccccc21 (stereo not drawn)" quantity_name=GI50 recorded_value="53.3 µM (inactive)"
compound=NC(=O)c1ccc([N+](=O)[O-])cc1 quantity_name=GI50 recorded_value="> 100 µM (inactive)"
compound="O=C(O)C1=C(C(=O)Nc2ccccc2)C2C=CC1C2 (stereo not drawn)" quantity_name=GI50 recorded_value="> 100 µM (inactive)"

QUERY: Would you mind telling me what GI50 value was observed for NC(=O)c1ncn(C2OC(CO)C(O)C2O)c1O (stereo not drawn) ?
RESULT: > 100 µM (inactive)

QUERY: Follow-up entry: O=C(CC1C(=O)Nc2ccccc2[S+]1[O-])Nc1ccc(Cl)cc1 (stereo not drawn)
RESULT: 53.7 µM (inactive)

QUERY: Follow-up entry: CC1CCCC(C(=O)/C(=C/c2cccc(Cl)c2)C(=O)C(=O)O)C1 (stereo not drawn)
RESULT: 55.2 µM (inactive)

QUERY: Follow-up entry: COC(=O)C1=C(CO)C2C=CC1C2 (stereo not drawn)
RESULT: > 100 µM (inactive)

###

Listing of recorded GI50 by entry.
Tested on: HT-29
assay comment: NCI tumour cell line growth inhibition, 48 h
Active and inactive are the calls of the source. Rule as the data show it: active = GI50 up to about 1.1 µM and inactive = higher.

Solved cases (3 shown):
compound=Cc1ccc(/C=N/Nc2cc(C)c3ccccc3n2)s1 recorded_value="3.85 µM (inactive)"
compound="CCOc1ccc2nc(NC(=O)/C(CC(=O)CC(C3=C(O)c4ccccc4CC3=O)c3ccccc3)=N\\O)sc2c1 (centres undefined)" recorded_value="> 100 µM (inactive)"
compound="C=C1CCC2C(C)(CO)C(O)CCC2(C)C1C/C=C1\\C(=O)OCC1O (centres undefined)" recorded_value="5.28 µM (inactive)"

Consider now this further compound.
QUERY: API: value(readout= GI50, system= HT-29, query= `NC(=O)c1nnsc1NN=O` )
RESULT: > 100 µM (inactive)

###

Tested on: RXF 393
assay comment: NCI tumour cell line growth inhibition, 48 h
The source made the active and inactive calls. Cut-off read from the data, not from the text of the source: active = GI50 up to about 1.1 µM and inactive = higher.
Assign a class; possible classes are true = active, false = inactive

Example results:
compound=c1ccc(/C(=N/Nc2ccncn2)c2ccccn2)cc1 target_under_test="RXF 393" discrete_label=false
compound=COc1ccc(S(=O)(=O)Nc2ccc(-c3csc(N4C(=O)/C(=C/c5ccccc5)N=C4c4ccccc4)n3)cc2)cc1Cl target_under_test="RXF 393" discrete_label=false
compound="CC(C)=CCC(OC(=O)C=C(C)C)c1cc(O)c2c(c1O)C(=O)C=CC2=O (stereo not given)" target_under_test="RXF 393" discrete_label=true
compound=O=c1oc2ccc([N+](=O)[O-])cc2c(Nc2ccc3c(c2)Sc2ccccc2O3)c1[N+](=O)[O-] target_under_test="RXF 393" discrete_label=false
compound=CC1(C)C(c2ccccc2)=[N+]([O-])C(C)(C)N1O target_under_test="RXF 393" discrete_label=false

QUERY: Hi, do you know how COc1ccc(COCC(Cn2ccnc2)OCc2ccc(C(=O)O)cc2)cc1 (stereo not given) came out in this test?
RESULT: false

QUERY: Follow-up entry: NC(=O)c1ncn(C2OC(CO)C(O)C2O)c1O (stereo not given)
RESULT: false

QUERY: Follow-up entry: `CCc1nc(N)nc(N)c1-c1ccc(N2CCOCC2)c(N=[N+]=[N-])c1`
RESULT: false

QUERY: Follow-up entry: `Cc1ccc(NC(=O)c2nc(S)nc(N)c2-c2ccccc2C)cc1C`
RESULT: false

QUERY: Follow-up entry: `CNC(=O)c1nn[nH]c1O`
RESULT: false

###

Tested on: NCI-H23
assay comment: NCI tumour cell line growth inhibition, 48 h
The source made the active and inactive calls. No stated cut-off is given here; in the data, active = GI50 up to about 1.1 µM and inactive = higher.
Assign a class; possible classes are active, inactive

Example results:
molecule=CCOC(=O)/C=C/C(Br)=C(Br)/C=C/C(=O)OCC target_under_test=NCI-H23 discrete_label=inactive
molecule=CCOC(=S)SCC(=O)O target_under_test=NCI-H23 discrete_label=inactive
molecule="COc1c(O)cc2c(c1O)C(=O)C(Cc1ccc(O)cc1)CO2 (stereo unspecified)" target_under_test=NCI-H23 discrete_label=inactive
molecule="COc1ccc(COCC(Cn2ccnc2)OCc2ccc(C(=O)O)cc2)cc1 (stereo unspecified)" target_under_test=NCI-H23 discrete_label=inactive
molecule="CC1=CC[C@H](C)C(C)(C)C1/C=C/C(C)=C/CC[C@@]1(CO)[C@H](CCCO)/C(=C(/C)C=O)CC[C@]1(C)O (stereo partly specified)" target_under_test=NCI-H23 discrete_label=inactive

QUERY: Hi, do you know how `CC1=C2C(=O)c3ccccc3C2=C(C)S(=O)(=O)O1` came out in this test?
RESULT: inactive

QUERY: Follow-up entry: COC(=O)C1=C(CO)C2C=CC1C2 (stereo unspecified)
RESULT: inactive

QUERY: Follow-up entry: `COc1cc2c(cc1OC)C(=O)/C(=C/c1ccc([N+](=O)[O-])cc1)CC2`
RESULT: inactive

QUERY: Follow-up entry: CC1CCCC(C(=O)/C(=C/c2cccc(Cl)c2)C(=O)C(=O)O)C1 (stereo unspecified)
RESULT: inactive

QUERY: Follow-up entry: O=C1/C(=C\c2ccccc2)C(NC2CCCCC2)c2ccccc21 (stereo unspecified)
RESULT: active

QUERY: Follow-up entry: `OCCN(CCO)c1cccc(N(CCO)CCO)c1`
RESULT: inactive

###

Tested on: SNB-19
assay comment: NCI tumour cell line growth inhibition, 48 h
Active and inactive are the calls of the source. Cut-off read from the data, not from the text of the source: active = GI50 up to about 1.1 µM and inactive = higher.
Listing of recorded GI50 by entry.

Solved cases (8 shown):
molecule=CC(=O)c1sc2c(c1OC(=O)c1ccco1)c(=O)n(-c1ccccc1)c(=S)n2-c1ccccc1 target_under_test=SNB-19 quantity_name=GI50 recorded_value="28.2 µM (inactive)"
molecule="CCOC(=O)C1Cc2c(cc3c4c(cccc24)N(C(C)=O)C3)N(C)C1 (centres undefined)" target_under_test=SNB-19 quantity_name=GI50 recorded_value="> 100 µM (inactive)"
molecule=Cc1c2c(OCCCCN3CCN(c4ncccn4)CC3)nn(C)c(=O)c2c(C)n1-c1ccccc1 target_under_test=SNB-19 quantity_name=GI50 recorded_value="19 µM (inactive)"
molecule=CN1CCN(CCCCNc2cc3c4ccccc4c(NCCCCN4CCN(C)CC4)cc3c3ccccc23)CC1 target_under_test=SNB-19 quantity_name=GI50 recorded_value="4.49 µM (inactive)"
molecule=Cc1nc2nc3c(ncn3COCCO)c(O)n2c1C(c1ccccc1)(c1ccccc1)c1ccccc1 target_under_test=SNB-19 quantity_name=GI50 recorded_value="14.8 µM (inactive)"
molecule=CC(=O)Nc1ccc(S(=O)(=O)/N=c2/sc(S(N)(=O)=O)nn2C)cc1 target_under_test=SNB-19 quantity_name=GI50 recorded_value="> 100 µM (inactive)"
molecule=CC(=O)O[C@H]1CC[C@@]2(C)C(=CC[C@@H]3[C@@H]2CC[C@]2(C)C(=O)/C(=C\c4ccccc4)C[C@@H]32)C1 target_under_test=SNB-19 quantity_name=GI50 recorded_value="> 100 µM (inactive)"
molecule="COC(=O)C1Cc2c(OC)ccc(OC)c2CC(C(=O)OC)C1=O (centres undefined)" target_under_test=SNB-19 quantity_name=GI50 recorded_value="> 100 µM (inactive)"

Consider now this further molecule.
QUERY: API: value(readout= GI50, system= SNB-19, query= `Cc1nc(N)sc1/N=N/c1cc(Cl)c([N+](=O)[O-])cc1Cl` )
RESULT: 29.1 µM (inactive)
